Target: RiCBM27 (Roseburia intestinalis, UniProt Z9TV37KX76)
recorded_metric: Kd (µM)
Write the value in µM as a bare number.

| compound | Kd [µM] |
| --- | --- |
| OC[C@H]1O[C@@H](O[C@H]2[C@H](O)[C@H](O)[C@H](O[C@H]3[C@H](O)[C@H](O)[C@H](O[C@H]4[C@H](O)[C@H](O)[C@H](O[C@H]5[C@H](O)[C@H](O)[C@H](O[C@H]6[C@H](O)[C@H](O)C(O)O[C@@H]6CO)O[C@@H]5CO)O[C@@H]4CO)O[C@@H]3CO)O[C@@H]2CO)[C@@H](O)[C@@H](O)[C@@H]1O (some centres unmarked) [M6, mannohexaose] | 165 |

From here, focus on the item given below.
Exam item: Provide the reported Kd (system: RiCBM27 (Roseburia intestinalis, UniProt Z9TV37KX76)) for OC[C@H]1O[C@@H](O[C@H]2[C@H](O)[C@H](O)[C@H](O[C@H]3[C@H](O)[C@H](O)C(O)O[C@@H]3CO)O[C@@H]2CO)[C@@H](O)[C@@H](O)[C@@H]1O (some centres unmarked) [M3, mannotriose]
Marked response: 1590

FYI, the data here is from paper PMC6385246.
